Value source: the supplement of paper PMC11451515

# System: P12-Ichikawa
# Measurement Description: cell viability relative to DMSO control; higher = less cytotoxic
# Measurement Conditions: HPLM + 10% dialyzed FBS; 48 h; 1.71 µM
Assign cell viability to each entry below.
Express your answer in %, writing the number without its unit.

Data request, read-out cell viability, for O=C1N\2CCC3=C([NH]C4=C3C=CC=C4)C2=N/C5=CC=CC=C15
129

// repeat for Cc1cc(Cl)ccc1OCCCC(=O)NO and report
98.6

What do you have for C#C[C@]1(O)CC[C@H]2[C@@H]3CCc4cc(OC)ccc4[C@H]3CC[C@@]21C ?
102

Continue with COC1=CC=C(C=C1)C2CC(=N/N2C3=CC=C(C=C3)[S+](N)([O-])=O)\C4=CC=CC=C4 (stereo not given)
83.8

Now give it for CO[C@H]1C[C@@H]2CC[C@@H](C)[C@@](O)(O2)C(=O)C(=O)N2CCCC[C@H]2C(=O)O[C@H]([C@H](C)C[C@@H]2CC[C@@H](OCCO)[C@H](OC)C2)CC(=O)[C@H](C)/C=C(/C)[C@@H](O)[C@@H](OC)C(=O)[C@H](C)C[C@H](C)\C=C/C=C\C=C/1C too.
86.6
